- Tested on: MDA-MB-468
- Condition set: MDA-MB-468 (Breast Cancer), 48 hours, SRB
Quantity: TGI (µM)
One number for each entry, in µM.

Find the measured TGI of [2H]On1c2c(c3ccc4c(c31)C=CC(C)(C)O4)C(OC([2H])([2H])[2H])[C@@]13NC(=O)C4(CCCN4C1=O)CC3C2(C)C (stereo partly shown) and report it.
1.78

Find the measured TGI of CC1(C)C=Cc2c(ccc3c4c(n(O)c23)C(C)(C)C2CC35CCCN3C(=O)C2(NC5=O)C4SCC(NC(=O)CCC(N)C(=O)O)C(=O)NCC(=O)O)O1 (stereo not shown) and report it.
1.62

Kindly give each listed record's TGI.
1. CN(C)c1cccc2c(S(=O)(=O)NCCCCCCCCCCOc3ccc4c(c3)[N+]([O-])=C3C4=C[C@@]45NC(=O)C6(CCCN6C4=O)CC5C3(C)C)cccc12 (stereo partly shown)
2. Cc1cc(C)cc(-c2ccc3c(c2)[N+]([O-])=C2C3=C[C@@]34NC(=O)C5(CCCN5C3=O)CC4C2(C)C)c1 (stereo partly shown)

1: 0.436; 2: 0.59

###

I'd be grateful if you could share measured CC50 for these entries.
- Test system: NCI-H460
- Condition set: read-out: LC50; NCI-H460 (Non-Small Cell Lung Cancer), 48 hours, SRB
One number for each entry, in µM.

Find the measured CC50 of CN(C)c1cccc2c(S(=O)(=O)NCCCCCCCCCCOc3ccc4c(c3)[N+]([O-])=C3C4=C[C@@]45NC(=O)C6(CCCN6C4=O)CC5C3(C)C)cccc12 (some centres unmarked) [Dansyl Analogue] and report it.
4.64

Let us examine a further case.
Find the measured CC50 of CC1(C)C=Cc2c(ccc3c4c(n(O)c23)C(C)(C)C2CC35CCCN3C(=O)C2(NC5=O)C4SCC(NC(=O)CCC(N)C(=O)O)C(=O)NCC(=O)O)O1 (centres unmarked) [Glutathione Adduct] and report it.
23.2

###

I'd be grateful if you could share measured CC50 for these entries.
- Tested on: RXF 393
- Condition set: read-out: LC50; RXF 393 (Renal Cancer), 48 hours, SRB
Give bare numbers, in µM.

// fetch CC50 for CN(C)c1cccc2c(S(=O)(=O)NCCCCCCCCCCOc3ccc4c(c3)[N+]([O-])=C3C4=C[C@@]45NC(=O)C6(CCCN6C4=O)CC5C3(C)C)cccc12 (some centres unmarked) ; system: RXF 393
44.4

Next:
// fetch CC50 for CC1(C)C=Cc2c(ccc3c4c(n(O)c23)C(C)(C)C2CC35CCCN3C(=O)C2(NC5=O)C4SCC(NC(=O)CCC(N)C(=O)O)C(=O)NCC(=O)O)O1 (centres unmarked) ; system: RXF 393
3.69

###

- System: HCT-116
- Condition set: read-out: LC50; HCT-116 (Colon Cancer), 48 hours, SRB
Quantity: CC50 (µM)
Give bare numbers, in µM.

Find the measured CC50 of CN(C)c1cccc2c(S(=O)(=O)NCCCCCCCCCCOc3ccc4c(c3)[N+]([O-])=C3C4=C[C@@]45NC(=O)C6(CCCN6C4=O)CC5C3(C)C)cccc12 (some centres unmarked) and report it.
5.98

Let us examine a further case.
Find the measured CC50 of CC1(C)C=Cc2c(ccc3c4c(n(O)c23)C(C)(C)C2CC35CCCN3C(=O)C2(NC5=O)C4SCC(NC(=O)CCC(N)C(=O)O)C(=O)NCC(=O)O)O1 (centres unmarked) and report it.
3.55
